target: T1, biotinylated His6 peptide (bio-EGGGSHHHHHH-COOH) (synthetic peptide, SMILES …); assay: BLI; biotinylated His6 peptide (100 nM) loaded on streptavidin biosensors; unlabeled protein or Q-body in two-fold dilutions in Kinetic buffer (phosphate, 150 mM NaCl, 0.002% Tween20, 0.1% BSA, pH 7.4); global fit, 1:1 model; Octet K2; details: both partners purified
T1 construct: spacer EGGGS and His6; Held on streptavidin biosensors by its biotin; source: synthetic peptide (PSSM-8 peptide synthesizer)
T1 chain: Biotin-EGGGSHHHHHH-OH
The star is where a group is joined. Biotin = O=C1N[C@H]2[C@H](CS[C@H]2CCCCC(=O)*)N1
readout_type: kon
Be sure to follow the number with its unit.

Solved cases (2 shown):
INSERT INTO assay_data (binder, recorded_result) VALUES
  ('5-TAMRA C6 maleimide double-labeled YW Fab 3D5 Q-body (Fab, V domains shown, VH of antibody 3D5, as the VH of m7 with the stated change; numbers count on: Kabat numbering of the heavy chain; CH1 of the vector pUQ2, as in m7; VL of antibody 3D5, as the light chain of m7; CL of the vector pUQ2, as the light chain of m7; m9 labelled with two dyes; also called YW TAMRA; source: E. coli SHuffle T7 Express with pGro7, purified (Talon IMAC), labelled, purified (anti-FLAG M2 …)) VH: QVQLQQSGPEDVKPGASVKISCKASGYTFTDYWMNWVKQSPGKGLEWIGDINPNNGGTSYNQKFKGRATLTVDKSSSTAYMELRSLTSEDSSVYYCESQSGAYWGQGTTVTVSA VL: DILMTQTPSSLPVSLGDQASISCRSSQSIVHSNGNTYLEWYLQKPGQSPKLLIYKVSNRFSGVPDRFSGSGSGTDFTLKISRVEAEDLGVYYCFQGSHVPFTFGSGTKLEIK', '392000 M⁻¹ s⁻¹'),
  ('anti-His Fab 3D5 (wild-type) (Fab, V domains shown, VH of antibody 3D5; numbers count on: Kabat numbering of the heavy chain; CH1 of the vector pUQ2 (Fd = VH-CH1); VL of antibody 3D5; CL of the vector pUQ2 (Lc = VL-CL); Linker-less pUQ2 (3D5): the (GGGS)4 linker between Cys-tag and VH was removed; His6 is followed by myc on the heavy chain; also called wild-type Fab; source: E. coli SHuffle T7 Express with pGro7, purified (Talon IMAC); not shown: …) VH: QVQLQQSGPEDVKPGASVKISCKASGYTFTDYYMNWVKQSPGKGLEWIGDINPNNGGTSYNQKFKGRATLTVDKSSSTAYMELRSLTSEDSSVYYCESQSGAYWGQGTTVTVSA VL: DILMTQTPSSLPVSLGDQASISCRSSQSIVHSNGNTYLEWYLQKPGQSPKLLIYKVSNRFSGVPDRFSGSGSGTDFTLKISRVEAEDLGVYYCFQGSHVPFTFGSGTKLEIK', '27400 M⁻¹ s⁻¹');

# input for lookup
kon lookup needed for 5-TAMRA C6 maleimide-labeled wild-type scFv 3D5 Q-body (scFv, V domains shown, VH of antibody 3D5, as in m1; linker between VH and VL, as in m1; VL of antibody 3D5, as in m1; m1 labelled with one dye; also called wild-type scFv Q-body; source: E. coli SHuffle T7 Express with pGro7, purified (Talon IMAC), labelled, purified (anti-FLAG M2 beads, G-25); not shown: Cys-tag, N-terminal, kept; His6, C-terminal, kept; FLAG, C-terminal, kept) VH: QVQLQQSGPEDVKPGASVKISCKASGYTFTDYYMNWVKQSPGKGLEWIGDINPNNGGTSYNQKFKGRATLTVDKSSSTAYMELRSLTSEDSSVYYCESQSGAYWGQGTTVTVSA VL: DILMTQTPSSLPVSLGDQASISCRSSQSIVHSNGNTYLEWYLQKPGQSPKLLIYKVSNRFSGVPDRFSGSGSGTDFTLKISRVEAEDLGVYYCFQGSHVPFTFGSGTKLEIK , thanks.
113000 M⁻¹ s⁻¹
